Numbers sourced from patent US9133183B2.

- tested_system: unphosphorylated c-KIT kinase (uKIT, Seq. ID no. 2) (Homo sapiens (Human))
- Sequence (P10721 other isoform, or with tags, fused parts or gaps): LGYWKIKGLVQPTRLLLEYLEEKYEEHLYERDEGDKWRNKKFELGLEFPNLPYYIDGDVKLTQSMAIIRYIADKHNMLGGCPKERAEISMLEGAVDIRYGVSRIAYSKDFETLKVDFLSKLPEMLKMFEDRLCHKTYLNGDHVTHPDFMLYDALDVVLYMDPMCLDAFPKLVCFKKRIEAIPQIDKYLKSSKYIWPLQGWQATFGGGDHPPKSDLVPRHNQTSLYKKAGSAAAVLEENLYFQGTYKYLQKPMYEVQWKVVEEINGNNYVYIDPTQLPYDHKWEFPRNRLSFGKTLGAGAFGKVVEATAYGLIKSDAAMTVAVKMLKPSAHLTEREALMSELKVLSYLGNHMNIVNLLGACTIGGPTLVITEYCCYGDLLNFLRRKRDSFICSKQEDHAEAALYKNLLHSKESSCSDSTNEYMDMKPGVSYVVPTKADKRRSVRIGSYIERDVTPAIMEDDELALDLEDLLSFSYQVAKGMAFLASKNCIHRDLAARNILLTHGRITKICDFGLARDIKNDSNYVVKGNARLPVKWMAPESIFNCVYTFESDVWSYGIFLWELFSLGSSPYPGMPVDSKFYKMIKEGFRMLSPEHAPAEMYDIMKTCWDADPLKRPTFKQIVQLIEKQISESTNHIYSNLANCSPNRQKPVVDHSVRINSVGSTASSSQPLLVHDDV
- protocol: uKit kinase assay (coupled pyruvate kinase/lactate dehydrogenase)
- measurement_context: enzymatic assay, ATP 2000 μM
pIC50: −log10 of the molar value.
assay_readout: pIC50

Past entries and their recorded results:
| structure_as_smiles | assay_readout | reported_measurement |
| --- | --- | --- |
| Cn1cc(-c2cc(Oc3ccc(NC(=O)N4CCN(C5CC5)C4=O)nc3)ccn2)cn1 | pIC50 | 7.00 to 8.00 |
| CCN1CCN(C(=O)Nc2ccc(Oc3ccnc(-c4ccc(C5CCN(C)CC5)cc4)c3)c(C)n2)C1=O | pIC50 | 6.00 to 7.00 |
| CCc1nc(NC(=O)N2CCN(C3CCCC3)C2=O)ccc1Oc1ccnc(-c2cnn(C)c2)c1 | pIC50 | < 6.00 |
| COCCN1CCN(C(=O)Nc2ccc(Oc3ccnc(NC(=O)N(C)C)c3)cn2)C1=O | pIC50 | 7.00 to 8.00 |
| CNC(=O)c1cc(Oc2ccc(NC(=O)N3CCN(C(C)(C)C)C3=O)nc2)ccn1 | pIC50 | 7.00 to 8.00 |

Okay, here is my list. What is pIC50 for each of these?
1. Cc1nc(NC(=O)N2CCN(C3CCOCC3)C2=O)ccc1Oc1ccnc(-c2cnn(C)c2)c1
2. Cc1nc(NC(=O)N2CCN(C(C)(C)C)C2=O)ccc1Oc1ccnc(-c2cnn(C)c2)c1

Output:
6.00 to 7.00
> 8.00

Okay, here is my list. What is pIC50 for each of these?
1. Cn1cc(-c2cc(Oc3ccc(NC(=O)N4CCN(CC#N)C4=O)nc3)ccn2)cn1
2. Cn1cc(-c2cc(Oc3ccc(NC(=O)N4CCN(C(C)(C)C)C4=O)nc3)ccn2)cn1
3. Cn1cc(-c2cc(Oc3ccc(NC(=O)N4CCN(C5COC5)C4=O)nc3)ccn2)cn1
4. Cn1cnc(-c2cc(Oc3ccc(NC(=O)N4CCN(C5CCOCC5)C4=O)nc3)ccn2)c1
5. CC(=O)Nc1cc(Oc2ccc(NC(=O)N3CCN(C4CCOCC4)C3=O)nc2C)ccn1
6. Cn1cc(-c2cc(Oc3ccc(NC(=O)N4CCN(C5CCOCC5)C4=O)nc3)ccn2)cn1

Output:
1. < 6.00
2. > 8.00
3. 7.00 to 8.00
4. 7.00 to 8.00
5. 6.00 to 7.00
6. 7.00 to 8.00

Okay, here is my list. What is pIC50 for each of these?
1. CCN1CCN(C(=O)Nc2ccc(Oc3ccnc(-c4cnn(C)c4)c3)c(C)n2)C1=O
2. Cc1ncc(-c2cc(Oc3ccc(NC(=O)N4CCN(C5CCOCC5)C4=O)nc3)ccn2)s1

Output:
6.00 to 7.00
7.00 to 8.00

----------
- tested_system: unphosphorylated c-FMS kinase (uFMS, Seq. ID no. 1) (Homo sapiens (Human), UniProt P07333)
- Sequence (P07333 538-972): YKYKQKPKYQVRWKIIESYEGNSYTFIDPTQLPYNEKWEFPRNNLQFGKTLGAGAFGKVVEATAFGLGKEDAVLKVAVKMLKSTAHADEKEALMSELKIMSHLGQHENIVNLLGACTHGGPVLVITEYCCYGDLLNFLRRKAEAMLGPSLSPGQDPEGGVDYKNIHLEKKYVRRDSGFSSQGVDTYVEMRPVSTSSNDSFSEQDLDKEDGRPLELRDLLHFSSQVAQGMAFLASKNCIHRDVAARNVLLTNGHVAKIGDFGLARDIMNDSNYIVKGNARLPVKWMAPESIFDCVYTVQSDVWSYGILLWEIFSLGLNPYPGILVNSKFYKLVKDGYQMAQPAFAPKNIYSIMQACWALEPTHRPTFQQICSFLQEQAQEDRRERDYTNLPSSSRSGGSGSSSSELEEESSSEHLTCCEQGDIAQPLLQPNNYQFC
- protocol: uFMS kinase assay (ADP production coupled to pyruvate kinase/lactate dehydrogenase)
- Assay type: biochemical
- measurement_context: enzymatic assay, ATP 500 μM; read-out: uFMS
pIC50: −log10 of the molar value.
Can you tell me pIC50 for the items I'm about to list?

Past entries and their recorded results:
| compound | tested_system | reported_measurement |
| --- | --- | --- |
| COCCN1CCN(C(=O)Nc2cc(Cl)c(Oc3ccnc(-c4cnn(C)c4)c3)cc2F)C1=O [Example 100] | unphosphorylated c-FMS kinase (uFMS, Seq. ID no. 1) (Homo sapiens (Human), UniProt P07333) | 7.00 to 8.00 |
| Cc1cc(NC(=O)N2CCN(C)C2=O)ncc1Oc1ccnc(-c2cnn(C)c2)c1 [Example 85] | unphosphorylated c-FMS kinase (uFMS, Seq. ID no. 1) (Homo sapiens (Human), UniProt P07333) | > 8.00 |
| Cn1cc(-c2cc(Oc3ccc(NC(=O)N4CCN(C5CCOCC5)C4=O)cc3Cl)ccn2)cn1 [Example 96] | unphosphorylated c-FMS kinase (uFMS, Seq. ID no. 1) (Homo sapiens (Human), UniProt P07333) | 7.00 to 8.00 |
| CN(C)C(=O)Nc1cc(Oc2cc(F)c(NC(=O)N3CCN(C4CCOCC4)C3=O)cc2Cl)ccn1 [Example 101] | unphosphorylated c-FMS kinase (uFMS, Seq. ID no. 1) (Homo sapiens (Human), UniProt P07333) | > 8.00 |
| Cc1nc(NC(=O)N2CCN(C3CCC(F)(F)CC3)C2=O)ccc1Oc1ccnc(-c2cnn(C)c2)c1 [Example 26] | unphosphorylated c-FMS kinase (uFMS, Seq. ID no. 1) (Homo sapiens (Human), UniProt P07333) | > 8.00 |
| CCc1nc(NC(=O)N2CCN(C3CCOCC3)C2=O)ccc1Oc1ccnc(-c2ccc(C)nc2)c1 [Example 63] | unphosphorylated c-FMS kinase (uFMS, Seq. ID no. 1) (Homo sapiens (Human), UniProt P07333) | 6.00 to 7.00 |
| CC1CN(C(=O)Nc2ccc(Oc3ccnc(-c4cnn(C)c4)c3)cn2)C(=O)N1C1CCOCC1 (stereo not drawn) [Example 40] | unphosphorylated c-FMS kinase (uFMS, Seq. ID no. 1) (Homo sapiens (Human), UniProt P07333) | > 8.00 |
| Cn1cc(-c2cc(Oc3cc(F)c(NC(=O)N4CCN(C5CCCCC5)C4=O)cc3Cl)ccn2)cn1 [Example 107] | unphosphorylated c-FMS kinase (uFMS, Seq. ID no. 1) (Homo sapiens (Human), UniProt P07333) | > 8.00 |

Okay, here is my list. What is pIC50 for each of these?
1. COC(C)(C)CCN1CCN(C(=O)Nc2cc(Cl)c(Oc3ccnc(-c4cnn(C)c4)c3)cc2F)C1=O [Example 108]
2. Cc1ccc(-c2cc(Oc3ccc(NC(=O)N4CCN(C5CCOCC5)C4=O)nc3C)ccn2)cn1 [Example 54]
3. CCN1CCN(C(=O)Nc2ccc(Oc3ccnc(-c4cnc(C)o4)c3)cn2)C1=O [Example 117]
4. Cc1ncc(-c2cc(Oc3ccc(NC(=O)N4CCN(C5CCOCC5)C4=O)nc3)ccn2)s1 [Example 60]
5. Cc1ncc(-c2cc(Oc3ccc(NC(=O)N4CCN(CC(F)(F)F)C4=O)nc3C)ccn2)s1 [Example 74]

Output:
1. 7.00 to 8.00
2. 7.00 to 8.00
3. 6.00 to 7.00
4. 7.00 to 8.00
5. 7.00 to 8.00

Okay, here is my list. What is pIC50 for each of these?
1. Cn1cc(-c2cc(Oc3cc(F)c(NC(=O)N4CCN(CCOC(F)(F)F)C4=O)cc3Cl)ccn2)cn1 [Example 106]
2. CCN1CCN(C(=O)Nc2ccc(Oc3ccnc(-c4cnc(C)s4)c3)c(C)n2)C1=O [Example 70]
3. Cn1cc(-c2cc(Oc3ccc(NC(=O)N4CCN(C5CCOCC5)C4=O)nc3)ncn2)cn1 [Example 8]
4. CCc1nc(NC(=O)N2CCN(C3CCCC3)C2=O)ccc1Oc1ccnc(-c2cnc(C)s2)c1 [Example 78]
5. COCCN1CCN(C(=O)Nc2cc(F)c(Oc3ccnc(-c4cnn(C)c4)c3)cc2F)C1=O [Example 98]

Output:
7.00 to 8.00
7.00 to 8.00
7.00 to 8.00
7.00 to 8.00
6.00 to 7.00

----------
- Test system: osteoclast precursors
- protocol: Osteoclast tartrate-resistant acid phosphatase assay
- Format: cell-based
- measurement_context: Osteoclast, 7-14 days, RANKL and M-CSF
pIC50: −log10 of the molar value.
Can you tell me pIC50 for the items I'm about to list?

Past entries and their recorded results:
| compound | reported_measurement |
| --- | --- |
| Cc1nc(NC(=O)N2CCN(C(C)C)C2=O)ccc1Oc1ccnc(-c2cnn(C)c2)c1 [Example 35] | > 8.00 |
| Cn1cc(-c2cc(Oc3cc(F)c(NC(=O)N4CCN(C5CCOCC5)C4=O)cc3F)ccn2)cn1 [Example 91] | 7.00 to 8.00 |
| Cn1cc(-c2cc(Oc3ccc(NC(=O)N4CCN(C5CCOC5)C4=O)nc3)ccn2)cn1 (stereo in doubt) [Example 12] | > 8.00 |

Okay, here is my list. What is pIC50 for each of these?
1. COCCCN1CCN(C(=O)Nc2ccc(Oc3ccnc(-c4cnn(C)c4)c3)cn2)C1=O [Example 11]
2. CCN1CCN(C(=O)Nc2ccc(Oc3ccnc(C(=O)NC)c3)cn2)C1=O [Example 115]
3. Cc1ccc(-c2cc(Oc3ccc(NC(=O)N4CCN(CC(F)(F)F)C4=O)nc3C)ccn2)cn1 [Example 53]
4. COCCN1CCN(C(=O)Nc2ccc(Oc3ccnc(-c4ccc(C5CCN(C)CC5)cc4)c3)c(C)n2)C1=O [Example 80]
5. COC(C)(C)CCN1CCN(C(=O)Nc2cc(Cl)c(Oc3ccnc(-c4cnn(C)c4)c3)cc2F)C1=O [Example 108]
6. Cc1cn(-c2cc(Oc3ccc(NC(=O)N4CCN(C5CCOCC5)C4=O)nc3)ccn2)cn1 [Example 77]

Output:
1: > 8.00; 2: 7.00 to 8.00; 3: 6.00 to 7.00; 4: 7.00 to 8.00; 5: 6.00 to 7.00; 6: 6.00 to 7.00

Task: Could you share which pIC50 value was measured for Cn1cc(-c2cc(Oc3ccc(NC(=O)N4CCN(C5CCOCC5)C4=O)c(F)c3)ccn2)cn1 [Example 95] ?
Output: 7.00 to 8.00
